Ref: ChEMBL document CHEMBL3603765

pIC50: −log10 of the molar value.
Parameter pIC50, tested on Epidermal growth factor receptor (Homo sapiens, UniProt P00533), listed per item.
Sequence (P00533 whole entry): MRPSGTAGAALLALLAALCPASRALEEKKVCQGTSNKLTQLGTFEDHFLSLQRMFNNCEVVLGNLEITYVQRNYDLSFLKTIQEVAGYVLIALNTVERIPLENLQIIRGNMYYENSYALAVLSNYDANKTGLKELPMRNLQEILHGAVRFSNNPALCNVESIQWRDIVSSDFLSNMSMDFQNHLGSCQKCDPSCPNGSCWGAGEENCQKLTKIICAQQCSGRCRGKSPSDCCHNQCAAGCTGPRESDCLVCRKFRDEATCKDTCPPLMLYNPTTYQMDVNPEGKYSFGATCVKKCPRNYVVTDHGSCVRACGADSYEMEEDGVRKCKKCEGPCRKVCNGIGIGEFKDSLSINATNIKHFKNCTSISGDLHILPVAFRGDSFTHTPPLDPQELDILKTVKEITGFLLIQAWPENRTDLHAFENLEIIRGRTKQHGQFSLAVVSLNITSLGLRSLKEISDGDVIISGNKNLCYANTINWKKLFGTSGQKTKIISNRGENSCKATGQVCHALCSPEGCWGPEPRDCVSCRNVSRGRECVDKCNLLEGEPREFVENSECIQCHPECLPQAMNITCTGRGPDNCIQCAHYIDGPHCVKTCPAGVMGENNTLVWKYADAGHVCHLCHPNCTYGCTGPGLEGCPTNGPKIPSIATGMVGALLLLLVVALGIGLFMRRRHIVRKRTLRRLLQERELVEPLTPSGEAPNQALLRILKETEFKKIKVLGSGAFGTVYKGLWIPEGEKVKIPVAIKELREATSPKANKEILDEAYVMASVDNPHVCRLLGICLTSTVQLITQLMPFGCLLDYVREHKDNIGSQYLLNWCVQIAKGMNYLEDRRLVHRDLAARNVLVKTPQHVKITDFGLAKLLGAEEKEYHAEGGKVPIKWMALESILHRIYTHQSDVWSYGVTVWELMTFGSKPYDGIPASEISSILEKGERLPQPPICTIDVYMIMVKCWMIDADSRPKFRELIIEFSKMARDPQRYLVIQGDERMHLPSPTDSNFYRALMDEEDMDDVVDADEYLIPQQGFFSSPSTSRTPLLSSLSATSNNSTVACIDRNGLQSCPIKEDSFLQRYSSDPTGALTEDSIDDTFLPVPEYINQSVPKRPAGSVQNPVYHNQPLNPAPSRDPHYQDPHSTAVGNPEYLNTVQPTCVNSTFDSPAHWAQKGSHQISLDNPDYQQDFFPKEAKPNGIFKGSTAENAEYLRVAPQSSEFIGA
Reported property: pIC50

INSERT INTO assay_data (compound_structure, reported_property, measurement) VALUES
  ('CN(C)C/C=C/C(=O)Nc1cccc(Oc2nc(Nc3n[nH]c4ccccc34)cc(N3CCN(C)CC3)n2)c1', 'pIC50', 5.17);

I: Cc1cc(Nc2cc(N3CCN(C)CC3)nc(Oc3cccc([N+](=O)[O-])c3)n2)n[nH]1
II: C=CC(=O)Nc1cccc(Oc2nc(Nc3n[nH]c4ccccc34)cc(N3CCN(C)CC3)n2)c1
Could you tell me which of I and II has the lower pIC50 reading? Please identify the chosen entry by its label. I
(I: 5.41, II: 5.77)

###

- System: Proto-oncogene tyrosine-protein kinase Src (Homo sapiens, UniProt P12931, S348C/T341M)
- Measurement protocol: Inhibition of cSrc T338M/S345C mutant (unknown origin) pre-incubated for 30 mins before substrate and ATP addition by HTRF assay
pIC50: −log10 of the molar value.
Reported property: pIC50

Past entries and their recorded results:
INSERT INTO measurements (compound_structure, system, measurement) VALUES
  ('C=CC(=O)Nc1cccc(Oc2nc(Nc3cc(C)[nH]n3)cc(N3CCN(C)CC3)n2)c1', 'Proto-oncogene tyrosine-protein kinase Src (Homo sapiens, UniProt P12931, S348C/T341M)', 7.55),
  ('CCC(=O)Nc1ccc2c(Nc3cc[nH]n3)nc(-c3ccccc3)nc2c1', 'Proto-oncogene tyrosine-protein kinase Src (Homo sapiens, UniProt P12931, S348C/T341M)', 7.32),
  ('CCC(=O)Nc1cccc(Oc2nc(Nc3n[nH]c4ccccc34)cc(N3CCN(C)CC3)n2)c1', 'Proto-oncogene tyrosine-protein kinase Src (Homo sapiens, UniProt P12931, S348C/T341M)', 6.59),
  ('CCC(=O)Nc1cccc(Oc2nc(Nc3cc(C)[nH]n3)cc(N3CCN(C)CC3)n2)c1', 'Proto-oncogene tyrosine-protein kinase Src (Homo sapiens, UniProt P12931, S348C/T341M)', 6.46);

I: C=CC(=O)Nc1cccc(Oc2nc(Nc3n[nH]c4ccccc34)cc(N3CCN(C)CC3)n2)c1
II: C=CC(=O)Nc1ccc2c(Nc3cc[nH]n3)nc(-c3ccccc3)nc2c1
Could you tell me which of I and II has the lower pIC50 reading? Please identify the chosen entry by its label. II
(II: 7.37, I: 7.77)

###

Parameter IC50, tested on Epidermal growth factor receptor (Homo sapiens, UniProt P00533), listed per item.

Under Epidermal growth factor receptor (Homo sapiens, UniProt P00533): IC50 value of CCC(=O)Nc1cccc(Oc2nccc(Nc3cc(C)[nH]n3)n2)c1 ? > 10 µM

Under Epidermal growth factor receptor (Homo sapiens, UniProt P00533): IC50 value of Cc1cc(Nc2cc(N3CCN(C)CC3)nc(Oc3ccc(NC(=O)/C=C/C(F)(F)F)cc3)n2)n[nH]1 ? 2 µM

Under Epidermal growth factor receptor (Homo sapiens, UniProt P00533): IC50 value of C=CC(=O)Nc1cc(Nc2cc[nH]n2)nc(-c2ccccc2)n1 ? 0.9 µM

Under Epidermal growth factor receptor (Homo sapiens, UniProt P00533): IC50 value of CCC(=O)Nc1ccccc1Oc1nc(Nc2cc(C)[nH]n2)cc(N2CCN(C)CC2)n1 ? > 10 µM

###

Parameter IC50, tested on Epidermal growth factor receptor (Homo sapiens), listed per item.

Past entries and their recorded results:
INSERT INTO results (compound_structure, system, measurement) VALUES
  ('CCC(=O)Nc1ccc(Oc2nc(Nc3cc(C)[nH]n3)cc(N3CCN(C)CC3)n2)cc1', 'Epidermal growth factor receptor (Homo sapiens)', '> 10 µM'),
  ('C=CC(=O)Nc1ccc(-c2nc(Nc3cc[nH]n3)c3ccccc3n2)cc1', 'Epidermal growth factor receptor (Homo sapiens)', '> 10 µM'),
  ('Cc1cc(Nc2cc(N3CCN(C)CC3)nc(Oc3ccc(N)cc3)n2)n[nH]1', 'Epidermal growth factor receptor (Homo sapiens)', '> 10 µM');

Let us examine a further case.
Return reported IC50; argument: C=CC(=O)Nc1ccc(Oc2nc(Nc3cc(C)[nH]n3)cc(N3CCN(C)CC3)n2)cc1 3.1 µM
